# Test system: G. pulex
# Study conditions: Gammarus pulex, in vivo
Values of k2, Simultaneous BCF greater than or equal to 0.3 day^− 1 map to 1; values below map to 0.

Consider the worked cases shown below.
- Compound: "Oc1cc(Cl)c(Cl)cc1Cl [2,4,5-Trichlorophenol]"
  Answer label: 0
- Compound: "O=[N+]([O-])NC1=NCCN1Cc1ccc(Cl)nc1 [Imidacloprid]"
  Answer label: 0

// query Determine whether measured k2, Simultaneous BCF meets or exceeds 0.3 day^− 1 for Clc1c(Cl)c(Cl)c(Cl)c(Cl)c1Cl [Hexachlorobenzene]
// result 0

// query Hi, just wondering whether CNC(=O)Oc1cccc2c1OC(C)(C)C2 [Carbofuran] shows k2, Simultaneous BCF of 0.3 day^− 1 or higher.
// result 0

// query Dear colleague, could you confirm whether Oc1ccc(Cl)cc1Cl [2,4-Dichlorophenol] has k2, Simultaneous BCF at or above 0.3 day^− 1?
// result 0

// query Test whether the compound Nc1ccc(Cl)cc1Cl [2,4-Dichloroaniline] records k2, Simultaneous BCF of 0.3 day^− 1 or higher.
// result 1

// query Does the reported k2, Simultaneous BCF for CNC(=O)O/N=C/C(C)(C)SC [Aldicarb] fall at or above the 0.3 day^− 1 mark?
// result 1

// query // inclusive: k2, Simultaneous BCF at least 0.3 day^− 1? input: CCOC(=O)CC(SP(=S)(OC)OC)C(=O)OCC (centres unmarked) [Malathion]
// result 1

// query Check this compound for k2, Simultaneous BCF at or above 0.3 day^− 1: Clc1cccc(Cl)c1Cl [1,2,3-Trichlorobenzene]
// result 1

// query Assess whether reported k2, Simultaneous BCF for CCOP(=S)(OCC)Oc1cc(C)nc(C(C)C)n1 [Diazinon] sits at 0.3 day^− 1 or higher.
// result 1

// query Please indicate if the recorded k2, Simultaneous BCF for O=[N+]([O-])c1ccc(CCl)cc1 [4-Nitrobenzyl chloride] meets or exceeds 0.3 day^− 1.
// result 1

* * *

# Test system: G. pulex
# Study conditions: Gammarus pulex, in vivo
Would you mind telling me the reported k1, Simultaneous BCF of each entry?

Examples with their reported k1, Simultaneous BCF follow.
- Molecule: "CCOC(=O)CC(SP(=S)(OC)OC)C(=O)OCC (centres unmarked)"
  k1, Simultaneous BCF: "86 L kg^− 1 day^− 1"
- Molecule: "Clc1cccc(Cl)c1Cl"
  k1, Simultaneous BCF: "1142 L kg^− 1 day^− 1"
- Molecule: "O=[N+]([O-])NC1=NCCN1Cc1ccc(Cl)nc1"
  k1, Simultaneous BCF: "2 L kg^− 1 day^− 1"

Fill in k1, Simultaneous BCF for each of the 8 molecules listed.
1. Nc1ccc(Cl)cc1Cl
2. O=[N+]([O-])c1ccc(CCl)cc1 [4-Nitrobenzyl chloride]
3. Oc1cc(Cl)c(Cl)cc1Cl
4. CNC(=O)O/N=C/C(C)(C)SC
5. Clc1c(Cl)c(Cl)c(Cl)c(Cl)c1Cl
6. Oc1ccc(Cl)cc1Cl
7. CCOP(=S)(OCC)Oc1cc(C)nc(C(C)C)n1
8. CNC(=O)Oc1cccc2c1OC(C)(C)C2

// result
1. 140 L kg^− 1 day^− 1
2. 666 L kg^− 1 day^− 1
3. 941 L kg^− 1 day^− 1
4. 16 L kg^− 1 day^− 1
5. 553 L kg^− 1 day^− 1
6. 600 L kg^− 1 day^− 1
7. 276 L kg^− 1 day^− 1
8. 10 L kg^− 1 day^− 1

* * *

# Test system: Gammarus pulex
# Test: Toxicokinetic exposure (48 h uptake, 48 h depuration) of radio-labelled pharmaceuticals, first-order one-compartment model (OECD 305)
# Study conditions: kinetic BCF, sequential using curve fitting method
Please go through the items and note down their BCF, Sequential BCF a.
Give bare numbers, in L kg^− 1.

Examples with answers:
- Molecule: "CC(C)(C)NCC(O)c1cc(O)cc(O)c1 (stereo not shown)"
  BCF, Sequential BCF a, L kg^− 1: 22
- Molecule: "COc1ccc(CC(C)NCC(O)c2ccc(O)c(NC=O)c2)cc1 (stereo not shown)"
  BCF, Sequential BCF a, L kg^− 1: 18
- Molecule: "CN(C)CCCN1c2ccccc2CCc2ccccc21"
  BCF, Sequential BCF a, L kg^− 1: 3811

Let us examine a further case.
// query In one line, give reported BCF, Sequential BCF a of the entry O=C(O)Cc1ccccc1Nc1c(Cl)cccc1Cl .
// result 27

* * *

# System: G. pulex
# Study conditions: Gammarus pulex, in vivo
Assign BCF, Sequential BCF to each entry below.
Give bare numbers, in L kg^− 1.

Here are 6 compounds. What values of BCF, Sequential BCF were reported for them?
1. Oc1cc(Cl)c(Cl)cc1Cl
2. O=[N+]([O-])NC1=NCCN1Cc1ccc(Cl)nc1
3. Nc1ccc(Cl)cc1Cl
4. Clc1cccc(Cl)c1Cl
5. CNC(=O)Oc1cccc2c1OC(C)(C)C2
6. O=[N+]([O-])c1ccc(CCl)cc1 [4-Nitrobenzyl chloride]

// result
[8327, 13, 179, 351, 72, 214]

List reported BCF, Sequential BCF for each of these compounds:
1. CCOP(=S)(OCC)Oc1cc(C)nc(C(C)C)n1
2. Clc1c(Cl)c(Cl)c(Cl)c(Cl)c1Cl
3. CCOC(=O)CC(SP(=S)(OC)OC)C(=O)OCC (centres unmarked)
4. CNC(=O)O/N=C/C(C)(C)SC

// result
[101, 4160, 212, 3]

* * *

# Tested on: Gammarus pulex
# Test: Toxicokinetic exposure (48 h uptake, 48 h depuration) of radio-labelled pharmaceuticals, first-order one-compartment model (OECD 305)
# Study conditions: sequential using curve fitting method
Exercise: for every item that follows, state its recorded k1, Sequential BCF a.
Give bare numbers, in L kg^− 1 day^− 1.

Below are worked cases with known answers.
- Compound: "O=C(O)Cc1ccccc1Nc1c(Cl)cccc1Cl"
  Recorded number: 0.253
- Compound: "CC(C)(C)NCC(O)c1cc(O)cc(O)c1 (stereo not shown)"
  Recorded number: 0.135
- Compound: "CN(C)CCCN1c2ccccc2CCc2ccccc21"
  Recorded number: 1.361

Could you now look at the following compound, please?
// query Indicate the recorded k1, Sequential BCF a value for this compound: COc1ccc(CC(C)NCC(O)c2ccc(O)c(NC=O)c2)cc1 (stereo not shown)
// result 0.451
